testedSystem: PDLIM1, O00151
Sequence (O00151 1-87): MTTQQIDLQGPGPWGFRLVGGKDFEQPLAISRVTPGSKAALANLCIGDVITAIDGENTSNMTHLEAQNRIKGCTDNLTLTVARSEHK
experimentSummary: holdup assay
Set-up: key: below the threshold = too weak to quantify, mostly under pKd 3.1 to 4
assayConditions: plain residues with an end cap or a label only (N-terminal biotin on a linker: ahx)
quantityName: pKd

| binder | recordedResult |
| --- | --- |
| KEYDDELTFF [USH1C, Q9Y6N9] | below the threshold |
| SKKNELFSNL [NHERF1, O14745] | below the threshold |
| ADENEQVSAV [RAPGEF6, Q8TEU7] | below the threshold |
| AKPQPVDSWV [ARVCF, O00192] | 3.55 |
| PKMKLNETSF [SHKBP1, Q8TBC3] | 3.51 |
| HSATSVHTSV [MTMR1, Q13613] | 3.72 |
| KDECVIATEV [DLL1, O00548] | below the threshold |
| VNENQKEYFF [CNTNAP4, Q9C0A0] | below the threshold |
| YNSFLSVTTV [PDZRN3, Q9UPQ7] | below the threshold |
| SAPATLSSRA [PDLIM2, Q96JY6] | below the threshold |
